settings: in isopropanol, 313.15 K
parameter: solubility (mole fraction)
Reply: number alone, nothing else.

solubility (mole fraction) measured on CC(=O)c1c(C)c([N+](=O)[O-])c(C(C)(C)C)c([N+](=O)[O-])c1C = 0.008

* * *

details: in ethyl acetate, 278.15 K
parameter: solubility (mole fraction)
Give the value as a plain number.

Summary for this molecule, CC(=O)c1c(C)c([N+](=O)[O-])c(C(C)(C)C)c([N+](=O)[O-])c1C : solubility (mole fraction) is 0.065

* * *

settings: in ethanol, 278.15 K
parameter: solubility (mole fraction)
Format: numeric value only, no unit, no commentary.

compound CC(=O)c1c(C)c([N+](=O)[O-])c(C(C)(C)C)c([N+](=O)[O-])c1C , solubility (mole fraction) observed: 0.00201

* * *

conditions: in n-butanol, 278.15 K
parameter: solubility (mole fraction)
Just the number.

The compound listed as CC(=O)c1c(C)c([N+](=O)[O-])c(C(C)(C)C)c([N+](=O)[O-])c1C shows solubility (mole fraction) equal to 0.00299

* * *

conditions: in DMF, 318.15 K
parameter: solubility (mole fraction)
I only need the number, thanks.

Item: CC(=O)c1c(C)c([N+](=O)[O-])c(C(C)(C)C)c([N+](=O)[O-])c1C | solubility (mole fraction): 0.215

* * *

conditions: in THF, 293.15 K
parameter: solubility (mole fraction)

Reported solubility (mole fraction) of CC(=O)c1c(C)c([N+](=O)[O-])c(C(C)(C)C)c([N+](=O)[O-])c1C : 0.202

* * *

conditions: in acetonitrile, 303.15 K
parameter: solubility (mole fraction)
Just the number.

response.value for CC(=O)c1c(C)c([N+](=O)[O-])c(C(C)(C)C)c([N+](=O)[O-])c1C (field: solubility (mole fraction)) = 0.0379

* * *

conditions: in ethyl acetate, 298.15 K
parameter: solubility (mole fraction)
Reply with the value as a number alone.

Record CC(=O)c1c(C)c([N+](=O)[O-])c(C(C)(C)C)c([N+](=O)[O-])c1C , field solubility (mole fraction): 0.108

* * *

conditions: in DMAc, 318.15 K
parameter: solubility (mole fraction)
Please reply with the value in numeric form only.

Data point: CC(=O)c1c(C)c([N+](=O)[O-])c(C(C)(C)C)c([N+](=O)[O-])c1C ; solubility (mole fraction) = 0.278

* * *

conditions: in THF, 283.15 K
parameter: solubility (mole fraction)
Response field accepts a number only; no unit should be typed.

Measured solubility (mole fraction), CC(=O)c1c(C)c([N+](=O)[O-])c(C(C)(C)C)c([N+](=O)[O-])c1C : 0.165

* * *

conditions: in n-heptane, 308.15 K
parameter: solubility (mole fraction)
Output: the number by itself.

Field solubility (mole fraction) (entry CC(=O)c1c(C)c([N+](=O)[O-])c(C(C)(C)C)c([N+](=O)[O-])c1C ) reads 0.00613

* * *

settings: in DMF, 288.15 K
parameter: solubility (mole fraction)
A bare number is all that is needed in reply.

The compound listed as CC(=O)c1c(C)c([N+](=O)[O-])c(C(C)(C)C)c([N+](=O)[O-])c1C has a reported solubility (mole fraction) of 0.0993

* * *

details: in ethyl acetate, 318.15 K
parameter: solubility (mole fraction)

solubility (mole fraction) measured on CC(=O)c1c(C)c([N+](=O)[O-])c(C(C)(C)C)c([N+](=O)[O-])c1C = 0.168

* * *

details: in isopropanol, 308.15 K
parameter: solubility (mole fraction)

CC(=O)c1c(C)c([N+](=O)[O-])c(C(C)(C)C)c([N+](=O)[O-])c1C has a reported solubility (mole fraction) of 0.00651

* * *

settings: in n-butanol, 293.15 K
parameter: solubility (mole fraction)
Field format: numeric only.

Measured solubility (mole fraction) of CC(=O)c1c(C)c([N+](=O)[O-])c(C(C)(C)C)c([N+](=O)[O-])c1C : 0.00557

* * *

details: in cyclohexane, 288.15 K
parameter: solubility (mole fraction)
No unit in the answer, please; the number alone is enough.

The compound CC(=O)c1c(C)c([N+](=O)[O-])c(C(C)(C)C)c([N+](=O)[O-])c1C showed solubility (mole fraction) equal to 0.00439

* * *

conditions: in n-heptane, 283.15 K
parameter: solubility (mole fraction)
In your answer, state the number alone without any accompanying words.

For reference, reported solubility (mole fraction) for CC(=O)c1c(C)c([N+](=O)[O-])c(C(C)(C)C)c([N+](=O)[O-])c1C stands at 0.00228

* * *

conditions: in n-heptane, 298.15 K
parameter: solubility (mole fraction)
Answer with the value's number alone.

Lab note: CC(=O)c1c(C)c([N+](=O)[O-])c(C(C)(C)C)c([N+](=O)[O-])c1C gave solubility (mole fraction) of 0.00419

* * *

conditions: in isopropanol, 303.15 K
parameter: solubility (mole fraction)
Respond using a number only.

The molecule listed as CC(=O)c1c(C)c([N+](=O)[O-])c(C(C)(C)C)c([N+](=O)[O-])c1C has a reported solubility (mole fraction) of 0.00521

* * *

settings: in isopropanol, 293.15 K
parameter: solubility (mole fraction)
API note: the answer field is a bare number with no unit suffix.

# solubility (mole fraction) (compound: CC(=O)c1c(C)c([N+](=O)[O-])c(C(C)(C)C)c([N+](=O)[O-])c1C ) is 0.00332

* * *

conditions: in THF, 288.15 K
parameter: solubility (mole fraction)
Note: the reply should be a number with no unit written.

The value of solubility (mole fraction) measured for the compound CC(=O)c1c(C)c([N+](=O)[O-])c(C(C)(C)C)c([N+](=O)[O-])c1C turned out to be 0.183

* * *

conditions: in isopropanol, 283.15 K
parameter: solubility (mole fraction)
Reply with just the number.

Sample CC(=O)c1c(C)c([N+](=O)[O-])c(C(C)(C)C)c([N+](=O)[O-])c1C ; solubility (mole fraction) observed: 0.002

* * *

details: in DMF, 308.15 K
parameter: solubility (mole fraction)
Please reply with the number alone, leaving off any unit.

Item: CC(=O)c1c(C)c([N+](=O)[O-])c(C(C)(C)C)c([N+](=O)[O-])c1C | solubility (mole fraction): 0.169

* * *

conditions: in cyclohexane, 313.15 K
parameter: solubility (mole fraction)

Consider CC(=O)c1c(C)c([N+](=O)[O-])c(C(C)(C)C)c([N+](=O)[O-])c1C . Its measured solubility (mole fraction) is 0.0127

* * *

conditions: in n-hexane, 313.15 K
parameter: solubility (mole fraction)
Keep it simple and answer with nothing but the number.

Per the record, CC(=O)c1c(C)c([N+](=O)[O-])c(C(C)(C)C)c([N+](=O)[O-])c1C has solubility (mole fraction) of 0.00629

* * *

conditions: in DMAc, 293.15 K
parameter: solubility (mole fraction)

Entry CC(=O)c1c(C)c([N+](=O)[O-])c(C(C)(C)C)c([N+](=O)[O-])c1C , solubility (mole fraction) reported as 0.165

* * *

settings: in DMF, 283.15 K
parameter: solubility (mole fraction)
Give the figure only, with no unit attached.

Form: molecule = CC(=O)c1c(C)c([N+](=O)[O-])c(C(C)(C)C)c([N+](=O)[O-])c1C ; solubility (mole fraction) = 0.0856

* * *

conditions: in DMF, 278.15 K
parameter: solubility (mole fraction)
// no unit, no text: just the number

Kindly note the recorded solubility (mole fraction) for CC(=O)c1c(C)c([N+](=O)[O-])c(C(C)(C)C)c([N+](=O)[O-])c1C , which is 0.0732

* * *

conditions: in ethanol, 283.15 K
parameter: solubility (mole fraction)
When you answer, write just the number.

The reported value for CC(=O)c1c(C)c([N+](=O)[O-])c(C(C)(C)C)c([N+](=O)[O-])c1C in terms of solubility (mole fraction) is 0.00251

* * *

conditions: in n-heptane, 293.15 K
parameter: solubility (mole fraction)
Could you respond with only the numeric value?

Documented solubility (mole fraction) of CC(=O)c1c(C)c([N+](=O)[O-])c(C(C)(C)C)c([N+](=O)[O-])c1C : 0.00344

* * *

conditions: in ethyl acetate, 313.15 K
parameter: solubility (mole fraction)

Summary for this compound, CC(=O)c1c(C)c([N+](=O)[O-])c(C(C)(C)C)c([N+](=O)[O-])c1C : solubility (mole fraction) is 0.151

* * *

conditions: in DMAc, 308.15 K
parameter: solubility (mole fraction)
I'd appreciate a reply containing only the number, no unit.

Lab note: CC(=O)c1c(C)c([N+](=O)[O-])c(C(C)(C)C)c([N+](=O)[O-])c1C gave solubility (mole fraction) of 0.228

* * *

details: in methanol, 313.15 K
parameter: solubility (mole fraction)
Enter a number only.

Reported solubility (mole fraction) of CC(=O)c1c(C)c([N+](=O)[O-])c(C(C)(C)C)c([N+](=O)[O-])c1C : 0.00455
